# Test system: Fathead minnow (Pimephales promelas) acute toxicity, lethality
# assay-info: DSSTox (EPAFHM) EPA Fathead Minnow Acute Toxicity
endpoint: Potency

The cases that follow already have their Potency on record.
CCCC(C)C1(CC)C(=O)N=C(O)NC1=O (configuration not stated) ... 199 µM
c1ccc2ccccc2c1 ... 47.9 µM
C=C[C@@](C)(O)CC[C@H]1C(=C)CC[C@H]2C(C)(C)CCC[C@]12C ... 0.413 µM
CCCCCCCCC#N ... 37.7 µM
CCC(C)C(C)C=O (configuration not stated) ... 140 µM
CC(=O)OC(C)(C)C ... 2820 µM

Ask | Given NCCN , report its Potency on Fathead minnow (Pimephales promelas) acute toxicity, lethality.
Reply | 3660 µM

Ask | Given O=Cc1cccc(C(F)(F)F)c1 , report its Potency on Fathead minnow (Pimephales promelas) acute toxicity, lethality.
Reply | 5.31 µM

Ask | Given Cc1ccc(C)cc1 , report its Potency on Fathead minnow (Pimephales promelas) acute toxicity, lethality.
Reply | 83.5 µM
